// provenance: PubChem BioAssay (EPA / NIEHS)

- methodNotes: STM_H9_OrnCyssISnorm_ratio: Stemina devTOX quickPredict H9 human embryonic stem cell (hESC)-based Assay for Ornithine (ORN):Cystine (CYSS) Ratio (AID 2283714)
Records with an inconclusive call do not appear. Activity calls are given as the source filed them. How the source made its calls: active means hit-call score of the fitted dose curve at least 0.9, where 1 is the maximum; inconclusive means response in the unintended direction; inactive means score below 0.9.
valueType: AC50

Solved entries (count: 3):
INSERT INTO assay_data (compound, valuetype, datavalue) VALUES
  ('O=c1c2ccccc2c(=O)c2c1cc(Cl)c1[nH]c3c([nH]c12)c(Cl)cc1c(=O)c2ccccc2c(=O)c13', 'AC50', '10 µM (active)'),
  ('c1cc[n+]2c(c1)-c1cccc[n+]1CC2', 'AC50', '2.36 µM (active)'),
  ('O=CC=Cc1ccccc1', 'AC50', '83.9 µM (active)');

Now for the compound whose AC50 we want.
Query: So what's the measured AC50 for this one? Cc1ccc(OP(=O)(Oc2ccc(C)cc2)Oc2ccc(C)cc2)cc1 (tested in a mixture with another compound)
Reply: 61.9 µM (active)

* * *

- testedTarget: human Acetylcholinesterase (AChE), ACHE (gene 43)
- methodNotes: NVS_ENZ_hAChE: NovaScreen (NVS) Enzymatic Assay for human Acetylcholinesterase (AChE) (AID 2283129)
Records with an inconclusive call do not appear. The source made the active and inactive calls. The calls were made as follows: active = hit-call score of the fitted dose curve at least 0.9, where 1 is the maximum; inconclusive = response in the unintended direction; inactive = score below 0.9.
Hi! Could you answer with just one of these? True = active, False = inactive

Before answering, review these 6 worked examples.
INSERT INTO measurements (compound, testedtarget, group) VALUES
  ('O=C1c2c(O)cccc2Cc2cccc(O)c21', 'human Acetylcholinesterase (AChE), ACHE (gene 43)', 'True'),
  ('N=C(N)c1ccc(OCCCCCOc2ccc(C(=N)N)cc2)cc1', 'human Acetylcholinesterase (AChE), ACHE (gene 43)', 'True'),
  ('O=c1[nH]c2ccc(S(=O)CCN3CCC(Cc4ccc(F)cc4)CC3)cc2o1 (configuration not stated)', 'human Acetylcholinesterase (AChE), ACHE (gene 43)', 'True'),
  ('CSC(=O)c1cccc2nnsc12', 'human Acetylcholinesterase (AChE), ACHE (gene 43)', 'False'),
  ('Cc1cc(CCN2CCN(c3nsc4ccccc34)CC2)cc2c1NC(=O)CC2(C)C', 'human Acetylcholinesterase (AChE), ACHE (gene 43)', 'False'),
  ('S=C(S)NCCNC(=S)S.[Mn+2].[S-]C([S-])=NCCN=C([S-])[S-].[Zn+2]', 'human Acetylcholinesterase (AChE), ACHE (gene 43)', 'False');

Query: How was NC(=O)N(O)[C@@H]1C=C[C@H](Oc2cccc(Oc3ccc(F)cc3)c2)C1 classified in this test?
Reply: False

Query: How was Nc1ccc2c(c1)C(=O)c1ccccc1C2=O classified in this test?
Reply: False

Query: How was CCCN(C1CCN(C(=O)C2CCNCC2)CC1)[C@@H]1CCc2ccc(OC)cc2C1 classified in this test?
Reply: True

Query: How was NCc1cccc(C2CCN(C(=O)c3ccc(C#Cc4ccccc4F)o3)CC2)c1 classified in this test?
Reply: True

Query: How was CNS(=O)(=O)c1cc(C(=O)N2CCC(CCN3C4CCC3CC(n3c(C)nc5ccccc53)C4)(c3cccc(F)c3)CC2)c(Cl)cc1F (configuration not stated) classified in this test?
Reply: False

Query: How was COCCOc1cc2cc(C(=O)NC3CCN(C(C)C)CC3)n(CC(=O)Nc3ccc(Cl)cn3)c2cn1 classified in this test?
Reply: True

Query: How was CCCOc1sc(C(=O)N2CCC(c3cc(CN)ccc3F)CC2)c(C)c1Br classified in this test?
Reply: False

Query: How was CN(C)C(=O)NC1(c2ccccc2)CCN(CCC[C@]2(c3ccc(Cl)c(Cl)c3)CCCN(C(=O)c3ccccc3)C2)CC1 classified in this test?
Reply: True

Query: How was CCCCCCC(CCCCCCCCCCC(=O)OCC(COC(C)=O)OC(C)=O)OC(C)=O (configuration not stated) classified in this test?
Reply: False

Query: How was C[C@]12CC[C@@H]3c4ccc(O)cc4C[C@@H](CCCCCCCCCS(=O)CCCC(F)(F)C(F)(F)F)[C@H]3[C@@H]1CC[C@@H]2O (some centres not stated) classified in this test?
Reply: False

Query: How was S=C([S-])NCCNC(=S)[S-].[Mn+2] classified in this test?
Reply: False

Query: How was CSc1ccc(Oc2ccc(S(N)(=O)=O)cc2CN(C)C)cc1C classified in this test?
Reply: False

Query: How was CCCCCOC(C)=O classified in this test?
Reply: False

Query: How was CCCCC(CC)COC(=O)CCCCCCCC(=O)OCC(CC)CCCC (configuration not stated) classified in this test?
Reply: False

Query: How was CC[C@H](c1ccc(O)cc1)[C@@H](CC)c1ccc(O)cc1 classified in this test?
Reply: True

Query: How was CCN(C(=O)c1cc(C)cc(OC[C@H](C)Nc2ccncc2)c1)C(C)C classified in this test?
Reply: True

* * *

- Read-out: Interleukin-1 alpha (IL1a), IL1A (gene 3552)
- methodNotes: BSK_BE3C_IL1a: BioMAP Diversity Plus: BE3C Assay for Interleukin-1 alpha (IL1a) Biomarker Activity (AID 2283016)
- measurementParameters: primary human bronchial epithelial cells; actives raise or lower the signal
Activity calls are given as the source filed them. Rule for the calls: active = hit-call score of the fitted dose curve at least 0.9, where 1 is the maximum; inactive = score below 0.9.
valueType: AC50

Solved entries (count: 8):
INSERT INTO results (compound, datavalue) VALUES
  ('O=[N+]([O-])C=Cc1ccccc1', '2.28 µM (active)'),
  ('C=CC(=O)OCC(CC)CCCC (centres undefined)', 'inactive'),
  ('CCCC[N+](CCCC)(CCCC)CCCC', 'inactive'),
  ('CC(C)(C)C(O)C(Oc1ccc(-c2ccccc2)cc1)n1cncn1 (centres undefined)', 'inactive'),
  ('c1ccc(Nc2ccc3ccccc3c2)cc1', '20 µM (active)'),
  ('O=S(=O)(c1ccccc1)c1ccccc1', 'inactive'),
  ('COCC(=O)N(c1c(C)cccc1C)N1CCOC1=O', 'inactive'),
  ('CCCCCCCCCCCC#N', 'inactive');

Query: So what's the measured AC50 for this one? COc1ccc(CO)cc1
Reply: inactive

Query: So what's the measured AC50 for this one? CC(C)(C)C(=O)CCl
Reply: inactive

Query: So what's the measured AC50 for this one? Cc1ccc(OP(=O)(Oc2ccc(C)cc2)Oc2ccc(C)cc2)cc1 (tested in a mixture with another compound)
Reply: inactive

Query: So what's the measured AC50 for this one? CCCOC(=O)c1ccccc1C(=O)OCCC
Reply: inactive

Query: So what's the measured AC50 for this one? O=P1(NCCCl)OCCCN1CCCl (centres undefined)
Reply: inactive

Query: So what's the measured AC50 for this one? COC(C)(C)CCC[C@H](C)C/C=C/C(C)=C/C(=O)OC(C)C
Reply: 7.52 µM (active)

Query: So what's the measured AC50 for this one? CCc1cc(C)cc(CC)c1-c1c(OC(=O)C(C)(C)C)n2n(c1=O)CCOCC2
Reply: inactive

Query: So what's the measured AC50 for this one? O=C(CCl)c1ccccc1
Reply: 32.6 µM (active)

Query: So what's the measured AC50 for this one? O=c1c2ccccc2c(=O)c2c1cc(Cl)c1[nH]c3c([nH]c12)c(Cl)cc1c(=O)c2ccccc2c(=O)c13
Reply: inactive

* * *

- Read-out: Vascular cell adhesion molecule 1 (VCAM1), VCAM1 (gene 7412)
- methodNotes: BSK_CASM3C_VCAM1: BioMAP Diversity Plus: CASM3C Assay for Vascular cell adhesion molecule 1 (VCAM1) Biomarker Activity (AID 2283055);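 further: VCAM-1 protein level quantified by ELISA on the cells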
- measurementParameters: primary human coronary artery smooth muscle cells; actives raise or lower the signal
Activity calls are given as the source filed them. The calls were made as follows: active = hit-call score of the fitted dose curve at least 0.9, where 1 is the maximum; inactive = score below 0.9.
Hi! Could you answer with just one of these? active, inactive

Before answering, review these 3 worked examples.
INSERT INTO assay_data (molecule, group) VALUES
  ('O=S(=O)(c1ccccc1)c1ccccc1', 'inactive'),
  ('COC(C)(C)CCC[C@H](C)C/C=C/C(C)=C/C(=O)OC(C)C', 'active'),
  ('Cc1ccc(OP(=O)(Oc2ccc(C)cc2)Oc2ccc(C)cc2)cc1 (tested in a mixture with another compound)', 'inactive');

Moving on to another molecule below.
Query: How was CCCCCCCCCCCC#N classified in this test?
Reply: active

* * *

- methodNotes: ATG_Sox_CIS: Attagene CIS-FACTORIAL HepG2 Assay for human SRY-box transcription factor (SOX) (AID 2282960)
- measurementParameters: HepG2 Attagene cis-factorial SOX reporter, mRNA; actives raise or lower the signal
Activity calls are given as the source filed them. Rule for the calls: active = hit-call score of the fitted dose curve at least 0.9, where 1 is the maximum; inactive = score below 0.9.
Hi! Could you answer with just one of these? active, inactive

INSERT INTO results (compound, group) VALUES
  ('O=P(O)(Oc1ccccc1)Oc1ccccc1', 'inactive'),
  ('CC[N+](=O)[O-]', 'inactive'),
  ('CCC(Br)(CC)C(=O)NC(N)=O', 'inactive');

Query: How was C[C@]12CCC(=O)C(O)=C1CC[C@@H]1[C@@H]2CC[C@]2(C)C(=O)CC[C@@H]12 classified in this test?
Reply: inactive

Query: How was Nc1ccc(Cl)c(Cl)c1 classified in this test?
Reply: inactive

Query: How was O=C1C(Cl)=C(Cl)C(=O)C(Cl)=C1Cl classified in this test?
Reply: inactive

Query: How was N#CCNCC#N classified in this test?
Reply: inactive

Query: How was [CH3][Sn]([CH3])([Cl])[Cl] classified in this test?
Reply: inactive
